# TARGET_OR_SYSTEM: HLA-A2402 (Homo sapiens, UniProt P04439, D101N/D140Y/D185E/E176V/E190D/F33S/G103R/G107R/I119L/I121M/I306V/K335N/L105A/L180Q/L300P/N151K/N90K/Q86E/Q94H/R106L/R138H/R89G/T104I/T345S/V100E/W191G/Y123F)
# TEST_NAME: cell-based
# Type: binding
pIC50: −log10 of the molar value. Residues, ends and D or L forms follow the SMILES beside them.
OBSERVED_PROPERTY: pIC50

Requested read-out: pIC50. Entry: CC(C)C[C@H](NC(=O)[C@@H](N)Cc1ccccc1)C(=O)N[C@@H](Cc1c[nH]c2ccccc12)C(=O)N[C@@H](CCC(=O)O)C(=O)N[C@@H](Cc1c[nH]c2ccccc12)C(=O)N[C@@H](C)C(=O)N[C@@H](CO)C(=O)N[C@H](C(=O)N[C@@H](CCCNC(=N)N)C(=O)O)C(C)C [Epitope P78] (H-FLWEWASVR-OH; N-terminus and C-terminus assumed) < 4.82

Requested read-out: pIC50. Entry: CC(C)C[C@H](NC(=O)[C@H](CC(C)C)NC(=O)[C@H](CCC(=O)O)NC(=O)[C@H](C)NC(=O)[C@@H](NC(=O)[C@@H](N)Cc1c[nH]cn1)[C@@H](C)O)C(=O)N[C@@H](C)C(=O)N[C@@H](C)C(=O)N[C@@H](CS)C(=O)N[C@@H](Cc1ccccc1)C(=O)O [Epitope P119] (H-HTAELLAACF-OH; N-terminus and C-terminus assumed) < 4.82

* * *

# TARGET_OR_SYSTEM: HLA-A2402 (Homo sapiens, UniProt P04439, D101N/D140Y/D185E/E176V/E190D/F33S/G103R/G107R/I119L/I121M/I306V/K335N/L105A/L180Q/L300P/N151K/N90K/Q86E/Q94H/R106L/R138H/R89G/T104I/T345S/V100E/W191G/Y123F)
# TEST_NAME: cell-based
# Assay type: binding
# EXPERIMENTAL_SETUP: HLA-A2402 HMy2.CIR cells; competitor peptide 15μM; 24 hours; flow cytometry
Residues, ends and D or L forms follow the SMILES beside them.
For each record, write down the corresponding inhibition at 15 µM.

Requested read-out: inhibition at 15 µM. Entry: CSCC[C@H](NC(=O)[C@H](CC(N)=O)NC(=O)[C@@H](NC(=O)[C@H](CC(N)=O)NC(=O)[C@@H](NC(=O)[C@H](Cc1ccc(O)cc1)NC(=O)[C@@H](N)CO)C(C)C)[C@@H](C)O)C(=O)NCC(=O)N[C@@H](CC(C)C)C(=O)O [Epitope P22] (H-SYVNTNMGL-OH; N-terminus and C-terminus assumed) 85%

Requested read-out: inhibition at 15 µM. Entry: CSCC[C@H](NC(=O)[C@@H](N)CCSC)C(=O)N[C@@H](Cc1c[nH]c2ccccc12)C(=O)N[C@@H](Cc1ccc(O)cc1)C(=O)N[C@@H](Cc1c[nH]c2ccccc12)C(=O)NCC(=O)N1CCC[C@H]1C(=O)N[C@@H](CO)C(=O)N[C@@H](CC(C)C)C(=O)O [Epitope P72] 71.4%

Requested read-out: inhibition at 15 µM. Entry: CC(C)[C@H](N)C(=O)N[C@@H](CS)C(=O)N[C@@H](C)C(=O)N1CCC[C@H]1C(=O)N[C@@H](C)C(=O)N1CCC[C@H]1C(=O)N[C@@H](CS)C(=O)N[C@@H](CC(N)=O)C(=O)N[C@@H](Cc1ccccc1)C(=O)O [Epitope P26] (H-VCAPAPCNF-OH; N-terminus and C-terminus assumed) 29.1%

Requested read-out: inhibition at 15 µM. Entry: CSCC[C@H](NC(=O)CNC(=O)[C@H](CCC(N)=O)NC(=O)[C@H](Cc1ccc(O)cc1)NC(=O)[C@H](CC(=O)O)NC(=O)[C@H](CC(C)C)NC(=O)[C@@H](N)CC(C)C)C(=O)N[C@@H](CC(C)C)C(=O)N1CCC[C@H]1C(=O)N[C@H](C(=O)O)C(C)C [Epitope P95] 19.4%

Requested read-out: inhibition at 15 µM. Entry: CC[C@H](C)[C@H](NC(=O)[C@@H](NC(=O)[C@H](CO)NC(=O)[C@H](CC(C)C)NC(=O)[C@H](Cc1c[nH]c2ccccc12)NC(=O)[C@@H](N)C(C)C)C(C)C)C(=O)N[C@@H](Cc1c[nH]c2ccccc12)C(=O)N[C@@H](CCSC)C(=O)N[C@@H](CCSC)C(=O)N[C@@H](Cc1c[nH]c2ccccc12)C(=O)O [Epitope P51] (H-VWLSVIWMMW-OH; N-terminus and C-terminus assumed) 52.5%

Requested read-out: inhibition at 15 µM. Entry: CC(C)C[C@H](NC(=O)[C@@H](NC(=O)[C@H](Cc1ccccc1)NC(=O)[C@@H](NC(=O)[C@H](CCCCN)NC(=O)[C@H](CC(C)C)NC(=O)[C@@H](N)CCCNC(=N)N)C(C)C)C(C)C)C(=O)NCC(=O)NCC(=O)O [Epitope P93] (H-RLKVFVLGG-OH; N-terminus and C-terminus assumed) 18.8%
